# Lookup of reported activation at 10 µM keyed by entry
Target: VR1 (human) (Homo sapiens)
Construct: expressed in transfected cells; host or cells: CHO K1 cells (ECACC), stably transfected
Sequence (Q8NER1 whole entry): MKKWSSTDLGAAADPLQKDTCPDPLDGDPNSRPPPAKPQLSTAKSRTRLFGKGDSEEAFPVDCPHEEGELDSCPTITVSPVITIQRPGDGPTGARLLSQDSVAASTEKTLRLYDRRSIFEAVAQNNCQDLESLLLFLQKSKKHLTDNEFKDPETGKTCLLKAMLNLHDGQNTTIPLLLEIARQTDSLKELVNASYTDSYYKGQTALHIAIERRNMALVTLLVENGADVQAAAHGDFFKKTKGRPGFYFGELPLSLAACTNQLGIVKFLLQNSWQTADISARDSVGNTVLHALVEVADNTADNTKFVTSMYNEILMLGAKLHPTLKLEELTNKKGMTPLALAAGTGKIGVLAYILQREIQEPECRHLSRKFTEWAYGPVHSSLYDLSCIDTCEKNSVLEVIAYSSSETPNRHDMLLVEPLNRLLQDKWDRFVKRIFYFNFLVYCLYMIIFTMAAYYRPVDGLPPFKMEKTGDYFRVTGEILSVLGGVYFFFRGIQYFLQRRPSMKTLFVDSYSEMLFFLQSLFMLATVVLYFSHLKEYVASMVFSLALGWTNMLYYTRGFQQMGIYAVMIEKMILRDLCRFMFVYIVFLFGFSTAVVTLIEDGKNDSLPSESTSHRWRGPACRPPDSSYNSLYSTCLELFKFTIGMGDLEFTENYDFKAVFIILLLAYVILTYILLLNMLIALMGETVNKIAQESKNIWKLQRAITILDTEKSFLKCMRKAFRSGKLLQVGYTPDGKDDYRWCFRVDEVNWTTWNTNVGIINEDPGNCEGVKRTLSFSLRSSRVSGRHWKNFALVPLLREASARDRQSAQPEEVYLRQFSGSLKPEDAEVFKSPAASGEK
Test: Functional study on vanilloid receptor (VR1), FLIPR Ca2+ assay in CHO K1 cells stably transfected with the VR1 gene
Format: cell-based
Settings: CHO-K1, test compound 10 μM; Ca2+ signal relative to 10 μM capsaicin (CP); read-out: VR1 (human) (% stimulation compared to 10 μM CP)
Counter-ions that a name gives are not always drawn.
Report the figure in % without appending any unit label.

[Q] Specify measured activation at 10 µM for CC(C)(C)c1ccc(C=C2SC(N3CCCCCC3)=NC2=O)cc1 [Example 200, hydrobromide] .
[A] 17.5

[Q] Indicate its recorded activation at 10 µM; the molecule in question is O=C1N=C(N2CCOCC2)SC1=Cc1cccc2ccccc12 [Example 209]
[A] 9.44

[Q] Return reported activation at 10 µM. Input molecule: O=C1N=C(N2CCSCC2)SC1=Cc1ccc(OC(F)(F)F)cc1 [Example 24]
[A] 61.3

[Q] Supply activation at 10 µM value. Item: O=C1N=C(N2CCOCC2)SC1=CC(=Cc1ccccc1)c1ccccc1 [Example 50]
[A] 0

[Q] Supply activation at 10 µM value. Item: O=C1N=C(N2CCSCC2)SC1=Cc1ccc2ccccc2c1 [Example 54]
[A] 79.6

[Q] Tell us which activation at 10 µM value is on record for O=C1N=C(N2CCOCC2)SC1=Cc1ccc(Oc2ccccc2)cc1 [Example 17]
[A] 46

[Q] Return activation at 10 µM (reported value) for this molecule: O=C1N=C(N2CCOCC2)SC1=CC=CSc1ccccc1 [Example 12]
[A] 55.4

[Q] Give activation at 10 µM for Cc1ccc(C=C2SC(N3CCN(Cc4ccccc4)CC3)=NC2=O)cc1 [Example 63]
[A] 0

[Q] Quote activation at 10 µM reported for Cc1ccc(C=C2SC(N3CCN(c4ncccc4Cl)CC3)=NC2=O)cc1 [Example 30] please.
[A] 0.06

[Q] Please look at this molecule and report its activation at 10 µM: O=C1N=C(N2CCOCC2)SC1=Cc1ccc(OCc2ccccc2)cc1 [Example 21]
[A] 36.5

[Q] Report measured activation at 10 µM; entry is COc1cc(C=C2SC(N3CCSCC3)=NC2=O)ccc1O [Example 39]
[A] 18.9

[Q] // Input: O=C1N=C(N2CCOCC2)SC1=Cc1cccc(Oc2ccccc2)c1 [Example 18] . Output its activation at 10 µM only.
[A] 139

[Q] Give me measured activation at 10 µM, please, for this molecule: CCN(CC)c1ccc(C=C2SC(N3CCOCC3)=NC2=O)cc1 [Example 223]
[A] 70.5

[Q] Complete the entry with activation at 10 µM for O=C1N=C(N2CCOCC2)SC1=CC=Cc1ccccc1 [Example 189, hydrobromide]
[A] 11.2

[Q] Answer with the recorded activation at 10 µM for the molecule listed here: CC1CN(C(=O)c2cccc(C=C3SC(N4CCSCC4)=NC3=O)c2)CCN1c1ncccc1Cl (stereo not shown) [Example 110]
[A] 1.02

[Q] Provide activation at 10 µM value for the following molecule: COc1ccc(C=C2SC(N3CCOCC3)=NC2=O)cc1 [Example 228]
[A] 12.2
